- Tested on: RSV A2
- assay name: Screening for RSV inhibition using Viral ToxGlo assay (cytopathic effect inhibition in HEp-2 cells)
- Format: cell-based, Respiratory Syncytial Virus (RSV)
- experimental context: human respiratory syncytial virus; RSV A2 in HEp-2 cells, MOI 0.5, 72h p.i., cytopathic effect inhibition relative to virus control, Viral ToxGlo luminescence
measure name: EC50 (nM)
Kindly provide the numeric value in nM only, without the unit symbol.

Answered cases to consult:
>>> print(df.to_string())
                                   molecule  system_tested  units_symbol  endpoint_value
0  O=C(N=C1NCCN1)c1ccc(Nc2cccc(C(=O)NC3CC3)c2Cl)c(C2CC2)c1         RSV A2            nM            32.2
1  CC1(NC(=O)c2cccc(Nc3c(F)cc(C(=O)N=C4NCCN4)cc3C3CC3)c2)CC1         RSV A2            nM             5.6
2  O=C(N=C1NCCN1)c1ccc(Nc2cccc(C(=O)NC3CC3)c2C(F)(F)F)c(C2CC2)c1         RSV A2            nM             131
3  CC1(NC(=O)c2cccc(Nc3c(F)cc(C(=O)N=C4NCCN4)cc3C3CCCO3)c2)CC1 (centres unmarked)         RSV A2            nM            19.1
4  O=C(N=C1NCCN1)c1cc(F)c(Nc2cccc(C(=O)N3CCOC(C(F)(F)F)C3)c2)c(C2CC2)c1 (centres unmarked)         RSV A2            nM            48.1

### Prompt Could you please provide reported EC50 for `CC(C)NC(=O)c1cc(F)cc(Nc2ccc(C(=O)N=C3NCCN3)cc2C2CC2)c1C1CC1` ? Thanks!
### Response 347

### Prompt Could you please provide reported EC50 for `CC(C)C(=O)Nc1cccc(Nc2ccc(C(=O)N=C3NCCN3)cc2C2CC2)c1` ? Thanks!
### Response 34.4

### Prompt Could you please provide reported EC50 for `CC1(NC(=O)c2cc(F)cc(Nc3ccc(C(=O)N=C4NCCN4)cc3C3CC3)c2)CC1` ? Thanks!
### Response 113

----------
- Test system: RSV A2
- assay name: Screening for RSV inhibition using Viral ToxGlo assay (cytopathic effect inhibition in HEp-2 cells)
- Assay type: cell-based, Respiratory Syncytial Virus (RSV)
- experimental context: human respiratory syncytial virus; RSV A2 in HEp-2 cells, MOI 0.5, 72h p.i., cytopathic effect inhibition relative to virus control, Viral ToxGlo luminescence
measure name: EC50 (µM)
Kindly provide the numeric value in µM only, without the unit symbol.

                                   molecule  units_symbol  endpoint_value
0  N#CC1(NC(=O)c2cccc(Nc3c(F)cc(C(=O)N=C4NCCN4)cc3C3CC3)c2)CC1            µM           0.101

### Prompt Could you please provide reported EC50 for CC(C)C(=O)Nc1cccc(Nc2ccc(C(=O)N=C3NCCN3)cc2C2CCOC2)c1 (stereo not shown) ? Thanks!
### Response 0.727

### Prompt Could you please provide reported EC50 for `CC1(C(=O)Nc2cccc(Nc3ccc(C(=O)N=C4NCCN4)cc3C3CC3)c2)CC1` ? Thanks!
### Response 0.0258

### Prompt Could you please provide reported EC50 for `Cc1c(Nc2ccc(C(=O)N=C3NCCN3)cc2C2CC2)cccc1-c1ncc(Cl)[nH]1` ? Thanks!
### Response 0.2

### Prompt Could you please provide reported EC50 for `CN1CCN/C1=N\C(=O)c1ccc(Nc2cccc(C(=O)NC3(C)CC3)c2)c(C(C)(C)C)c1` ? Thanks!
### Response 0.0317

### Prompt Could you please provide reported EC50 for `CC(C)NC(=S)c1cccc(Nc2ccc(C(=O)N=C3NCCN3)cc2C2CC2)c1` ? Thanks!
### Response 0.0504

### Prompt Could you please provide reported EC50 for `O=C(N=C1NCCN1)c1ccc(Nc2cccc(C(=O)NC3(C(F)(F)F)CC3)c2Cl)c(C2CC2)c1` ? Thanks!
### Response 0.0326

### Prompt Could you please provide reported EC50 for `O=C(N=C1NCCN1)c1cc(F)c(Nc2nccc(C(=O)N3C[C@@H]4C[C@H]3CO4)c2F)c(C2CC2)c1` ? Thanks!
### Response 0.225

### Prompt Could you please provide reported EC50 for O=C(N=C1NCCN1)c1ccc(Nc2cccc(C(=O)NC3CCOC3)c2)c(C2CCCC2)c1 (stereo not shown) ? Thanks!
### Response 0.0959

### Prompt Could you please provide reported EC50 for `CC1(NC(=O)c2nccc(Nc3c(F)cc(C(=O)N=C4NCCN4)cc3C3CC3)c2Cl)CC1` ? Thanks!
### Response 0.0266

### Prompt Could you please provide reported EC50 for `CC1(NC(=O)c2cccc(Nc3c(F)cc(C(=O)N=C4NCCN4)cc3C3CC3)c2Cl)CC1` ? Thanks!
### Response 0.0043

### Prompt Could you please provide reported EC50 for O=C(N=C1NCCN1)c1ccc(Nc2cccc(C(=O)N3CCOCC3)c2Cl)c(C2CCOC2)c1 (stereo not shown) ? Thanks!
### Response 0.0149

### Prompt Could you please provide reported EC50 for `N#CC1(NC(=O)c2ccnc(Nc3c(F)cc(C(=O)N=C4NCCN4)cc3C3CC3)c2F)CC1` ? Thanks!
### Response 1.14

### Prompt Could you please provide reported EC50 for CC(C)C1CN(C(=O)c2cccc(Nc3ccc(C(=O)N=C4NCCN4)cc3C3CC3)c2Cl)CCO1 (stereo not shown) ? Thanks!
### Response 0.0032

### Prompt Could you please provide reported EC50 for `CC1(C(=O)Nc2cccc(Nc3ccc(C(=O)N=C4NCCN4)cc3C3CC3)c2)COC1` ? Thanks!
### Response 0.69

### Prompt Could you please provide reported EC50 for CC(C)C1COCCN1C(=O)c1cccc(Nc2ccc(C(=O)N=C3NCCN3)cc2C2CC2)c1Cl (stereo not shown) ? Thanks!
### Response 0.0124
